src = patent US20200262868A1

// maximal calcium response compared to Neurokinin A lookup, one value per entry
Target: T1, human NK2 Receptor (human, UniProt P21452 1-398)
T1 sequence (looked up): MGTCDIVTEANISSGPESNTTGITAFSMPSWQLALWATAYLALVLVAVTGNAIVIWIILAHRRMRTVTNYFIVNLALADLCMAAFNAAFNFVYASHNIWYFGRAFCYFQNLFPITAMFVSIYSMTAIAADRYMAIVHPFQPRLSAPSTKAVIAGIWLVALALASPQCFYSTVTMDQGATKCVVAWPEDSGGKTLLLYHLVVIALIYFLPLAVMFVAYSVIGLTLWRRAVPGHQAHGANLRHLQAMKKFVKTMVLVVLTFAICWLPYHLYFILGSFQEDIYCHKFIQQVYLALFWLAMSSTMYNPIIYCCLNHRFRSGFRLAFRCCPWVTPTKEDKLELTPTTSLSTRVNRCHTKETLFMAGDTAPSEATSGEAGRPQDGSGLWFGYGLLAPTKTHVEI
Assay: cell-based or functional assay
Where no end group is shown, it is not given here. [ ]: non-standard residue; d: D form. NMeL = CN[C@@H](CC(C)C)C(=O)O

Solved cases (5 shown):
Binder	Assay value
DRFVGLM-NH2 (synthetic heptapeptide analog of neurokinin A, Fmoc solid-phase synthesis; also called Compound H; Cmpd H) [Heptapeptide analog H, Asp-Arg-Phe-Val-Gly-Leu-Met-NH2]	> 80%
DRFVALX (HELM PEPTIDE1{D.R.F.V.[bAla].L.[Nle].[am]}$$$$V2.0; N-terminus assumed; SMILES CCCC[C@H](NC(=O)[C@H](CC(C)C)NC(=O)CCNC(=O)[C@@H](NC(=O)[C@H](Cc1ccccc1)NC(=O)[C@H](CCCNC(=N)N)NC(=O)[C@@H](N)CC(=O)O)C(C)C)C(N)=O, synthetic heptapeptide analog of neurokinin A, Fmoc solid-phase synthesis; also called Compound K; Cmpd K) [Heptapeptide analog K, Asp-Arg-Phe-Val-(β-Ala)-Leu-Nle-NH2]	> 80%
DKFVGLM-NH2 [Heptapeptide analog D, Asp-Lys-Phe-Val-Gly-Leu-Met-NH2]	> 80%
DRFVALM (HELM PEPTIDE1{D.R.F.V.[bAla].L.M.[am]}$$$$V2.0; N-terminus assumed; SMILES CSCC[C@H](NC(=O)[C@H](CC(C)C)NC(=O)CCNC(=O)[C@@H](NC(=O)[C@H](Cc1ccccc1)NC(=O)[C@H](CCCNC(=N)N)NC(=O)[C@@H](N)CC(=O)O)C(C)C)C(N)=O, synthetic heptapeptide analog of neurokinin A, Fmoc solid-phase synthesis; also called Compound I; Cmpd I) [Heptapeptide analog I, Asp-Arg-Phe-Val-(β-Ala)-Leu-Met-NH2]	> 80%
DRFVGLX (HELM PEPTIDE1{D.R.F.V.G.L.[Nle].[am]}$$$$V2.0; N-terminus assumed; SMILES CCCC[C@H](NC(=O)[C@H](CC(C)C)NC(=O)CNC(=O)[C@@H](NC(=O)[C@H](Cc1ccccc1)NC(=O)[C@H](CCCNC(=N)N)NC(=O)[C@@H](N)CC(=O)O)C(C)C)C(N)=O, synthetic heptapeptide analog of neurokinin A, Fmoc solid-phase synthesis; also called Compound J; Cmpd J) [Heptapeptide analog J, Asp-Arg-Phe-Val-Gly-Leu-Nle-NH2]	> 80%

Query block: Could you share which maximal calcium response compared to Neurokinin A value was measured for DKFVALX (HELM PEPTIDE1{D.K.F.V.[bAla].L.[Nle].[am]}$$$$V2.0; N-terminus assumed; SMILES CCCC[C@H](NC(=O)[C@H](CC(C)C)NC(=O)CCNC(=O)[C@@H](NC(=O)[C@H](Cc1ccccc1)NC(=O)[C@H](CCCCN)NC(=O)[C@@H](N)CC(=O)O)C(C)C)C(N)=O, synthetic heptapeptide analog of neurokinin A, Fmoc solid-phase synthesis; also called Compound G; Cmpd G) [Heptapeptide analog G, Asp-Lys-Phe-Val-(β-Ala)-Leu-Nle-NH2] ?
Result block: > 80%

Query block: Could you share which maximal calcium response compared to Neurokinin A value was measured for DKFVG[NMeL]M-NH2 (synthetic heptapeptide analog of neurokinin A, Fmoc solid-phase synthesis; also called Compound A; Cmpd A) [Heptapeptide analog A, Asp-Lys-Phe-Val-Gly-(NMe-Leu)-Met-NH2] ?
Result block: > 80%

Query block: Could you share which maximal calcium response compared to Neurokinin A value was measured for DRFVGLM (HELM PEPTIDE1{D.R.F.V.G.[meL].M.[am]}$$$$V2.0; N-terminus assumed; SMILES CSCC[C@H](NC(=O)[C@H](CC(C)C)N(C)C(=O)CNC(=O)[C@@H](NC(=O)[C@H](Cc1ccccc1)NC(=O)[C@H](CCCNC(=N)N)NC(=O)[C@@H](N)CC(=O)O)C(C)C)C(N)=O, synthetic heptapeptide analog of neurokinin A, Fmoc solid-phase synthesis; also called Compound C; Cmpd C) [Heptapeptide analog C, Asp-Arg-Phe-Val-Gly-(NMe-Leu)-Met-NH2] ?
Result block: > 80%
